molecular target: UniProtKB P00519; assay: Cerep kinase profiling, HTRF assay, Abl kinase; format: biochemical; conditions: Table 8; compound incubated at 10 μM; read-out: Percentage inhibition of kinase Abl
Sequence (P00519 whole entry): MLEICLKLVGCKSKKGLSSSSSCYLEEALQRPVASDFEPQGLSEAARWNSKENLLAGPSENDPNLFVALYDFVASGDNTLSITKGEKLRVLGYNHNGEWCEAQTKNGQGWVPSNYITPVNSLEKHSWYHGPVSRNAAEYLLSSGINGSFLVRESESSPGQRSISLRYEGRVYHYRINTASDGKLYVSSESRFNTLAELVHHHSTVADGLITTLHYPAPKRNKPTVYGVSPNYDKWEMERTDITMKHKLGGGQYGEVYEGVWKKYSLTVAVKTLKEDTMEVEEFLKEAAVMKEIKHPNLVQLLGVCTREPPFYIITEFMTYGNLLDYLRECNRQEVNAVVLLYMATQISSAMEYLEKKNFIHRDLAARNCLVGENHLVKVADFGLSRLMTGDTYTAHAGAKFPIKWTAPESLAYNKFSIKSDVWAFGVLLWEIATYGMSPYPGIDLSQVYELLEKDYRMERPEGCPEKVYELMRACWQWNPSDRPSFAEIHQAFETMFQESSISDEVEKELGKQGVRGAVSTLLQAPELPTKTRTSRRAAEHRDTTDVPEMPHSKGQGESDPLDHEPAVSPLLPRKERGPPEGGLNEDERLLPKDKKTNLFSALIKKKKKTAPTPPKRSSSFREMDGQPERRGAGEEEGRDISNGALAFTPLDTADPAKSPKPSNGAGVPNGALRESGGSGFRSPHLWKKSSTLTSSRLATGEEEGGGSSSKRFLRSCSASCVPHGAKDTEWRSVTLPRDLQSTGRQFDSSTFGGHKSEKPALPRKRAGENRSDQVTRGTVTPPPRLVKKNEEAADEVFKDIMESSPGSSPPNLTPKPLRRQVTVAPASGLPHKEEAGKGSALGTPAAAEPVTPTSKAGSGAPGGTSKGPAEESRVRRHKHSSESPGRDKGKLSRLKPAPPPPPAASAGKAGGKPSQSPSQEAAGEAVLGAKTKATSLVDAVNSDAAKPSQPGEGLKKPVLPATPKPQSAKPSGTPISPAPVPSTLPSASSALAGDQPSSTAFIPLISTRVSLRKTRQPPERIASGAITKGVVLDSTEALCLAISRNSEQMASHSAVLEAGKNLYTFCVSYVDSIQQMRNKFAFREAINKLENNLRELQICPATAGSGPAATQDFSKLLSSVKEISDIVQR
For each entry below, report its inhibition at 10 µM value.
Numbers only, in %.

Each molecule below has a recorded value; state its inhibition at 10 µM.
1. COC(=O)c1cc2cc(NC(=O)c3ccccc3Br)cnc2[nH]1
2. CN(C)CCCNC(=O)c1cc2cc(NC(=O)c3ccccc3Br)cnc2[nH]1
3. COCc1cc2cc(NC(=O)c3ccccc3Br)cnc2[nH]1
4. O=C(Nc1cnc2[nH]c(CNc3ccc(O)cc3)cc2c1)c1ccccc1Br
5. COC(=O)c1cc2cc(NC(=O)c3c(F)cccc3OC)cnc2[nH]1
6. O=C(Nc1cnc2[nH]c(Cc3ccc[nH]3)cc2c1)c1ccccc1Br

stdout:
1: 85; 2: 100; 3: 94; 4: 94; 5: 94; 6: 97
